Experiment: in vivo
Settings: Bama miniature, pig, in vivo, po
Recorded metric: concentration at 12 h (ng/mL)
Value expressed in ng/mL; do not type the unit.

// concentration at 12 h lookup, molecule = COc1cc2c(cc1OC)-c1cc3ccc(OC)c(OC)c3c[n+]1CC2 [palmatine] , result: 5.79

###

Assay: in vivo
Conditions: Bama miniature, pig, in vivo, po
Quick rule for you: MRT at 10 h or higher means yes, lower means no.

- Compound: "COc1cc2ccc(=O)oc2c(O[C@@H]2O[C@H](CO)[C@@H](O)[C@H](O)[C@H]2O)c1O"
  Category label: "no"
- Compound: "c1c2c(cc3c1OCO3)-c1cc3ccc4c(c3c[n+]1CC2)OCO4 [Coptisine chloride, coptisine chloride]"
  Category label: "yes"
- Compound: "COc1ccc2cc3[n+](cc2c1OC)CCc1cc2c(cc1-3)OCO2"
  Category label: "yes"
- Compound: "COc1cc2ccc(=O)oc2c(O)c1O"
  Category label: "no"

Is reported MRT greater than or equal to 10 h here: CC1(C)OC(=O)C=C[C@]2(C)[C@H]3CC[C@@]4(C)[C@H](c5ccoc5)OC(=O)[C@H]5O[C@]54[C@]3(C)C(=O)C[C@@H]12 yes

###

Test: in vivo
Settings: Bama miniature, pig, in vivo, po
Method: The LC-MS analysis was conducted using a Waters Acquity UPLC I-Class system (Waters, USA) coupled with a Xevo TQ-XS mass spectrometer equipped with a heated electrospray ionization source. Chromatographic separation was carried out on an Acquity UPLC HSS T3 C18 column (2.1 mm × 50 mm, 1.8 μm) from Waters, USA, with a flow rate of 0.4 mL/min and a column oven temperature of 40°C. The mobile phase consisted of 0.1% aqueous formic acid (A) and acetonitrile (B). […]
List of log10(half-life) values.
The common logarithm of half-life in min is what is listed.

Consider the reported log10(half-life) for these compounds:
- Compound: "COc1cc2ccc(=O)oc2c(O[C@@H]2O[C@H](CO)[C@@H](O)[C@H](O)[C@H]2O)c1O [Fraxin, fraxin]"
  Recorded metric: "log10(half-life)"
  Endpoint result: 1.33
- Compound: "COc1ccc2cc3[n+](cc2c1OC)CCc1cc2c(cc1-3)OCO2 [Berberine, berberine]"
  Recorded metric: "log10(half-life)"
  Endpoint result: 2.27
- Compound: "CC1(C)OC(=O)C=C[C@]2(C)[C@H]3CC[C@@]4(C)[C@H](c5ccoc5)OC(=O)[C@H]5O[C@]54[C@]3(C)C(=O)C[C@@H]12 [Obacunone, obacunone]"
  Recorded metric: "log10(half-life)"
  Endpoint result: 1.72

Documented log10(half-life) of c1c2c(cc3c1OCO3)-c1cc3ccc4c(c3c[n+]1CC2)OCO4 [Coptisine chloride, coptisine chloride] : 2.53

Entry COc1cc2ccc(=O)oc2c(O)c1O [Fraxetin, fraxetin] ; log10(half-life) = 1.30

###

Assay: Plasma pharmacokinetics after single oral (intragastric) administration of BTWD extract
Settings: Bama miniature, pig, in vivo, po, 1 mL/kg
Recorded metric: half-life (min)
State the answer as a number, implicitly in min.

// recorded half-life for O=c1ccc2cc(O[C@@H]3O[C@H](CO)[C@@H](O)[C@H](O)[C@H]3O)c(O)cc2o1 : 998

###

Assay: in vivo
Conditions: Bama miniature, pig, in vivo, po
# binarize AUC(0-t): threshold 100 ng·h/mL inclusive, high side t, low side f

- Compound: "COc1cc2ccc(=O)oc2c(O)c1O [Fraxetin, fraxetin]"
  Category label: "t"
- Compound: "c1c2c(cc3c1OCO3)-c1cc3ccc4c(c3c[n+]1CC2)OCO4 [Coptisine chloride, coptisine chloride]"
  Category label: "f"
- Compound: "COc1cc2ccc(=O)oc2c(O[C@@H]2O[C@H](CO)[C@@H](O)[C@H](O)[C@H]2O)c1O [Fraxin, fraxin]"
  Category label: "f"
- Compound: "CC1(C)OC(=O)C=C[C@]2(C)[C@H]3CC[C@@]4(C)[C@H](c5ccoc5)OC(=O)[C@H]5O[C@]54[C@]3(C)C(=O)C[C@@H]12 [Obacunone, obacunone]"
  Category label: "t"

Now for a further compound.
Could you verify whether the entry COc1ccc2cc3[n+](cc2c1OC)CCc1cc2c(cc1-3)OCO2 [Berberine, berberine] shows AUC(0-t) of no less than 100 ng·h/mL? t

###

Assay: in vivo
Settings: Bama miniature, pig, in vivo, po
Recorded metric: Tmax (h)
Write down the numeric answer in h and omit the unit.

- Compound: "COc1cc2ccc(=O)oc2c(O)c1O [Fraxetin, fraxetin]"
  Tmax, h: 0.49

Documented Tmax of CC1(C)OC(=O)C=C[C@]2(C)[C@H]3CC[C@@]4(C)[C@H](c5ccoc5)OC(=O)[C@H]5O[C@]54[C@]3(C)C(=O)C[C@@H]12 [Obacunone, obacunone] : 3.49

The compound listed as COc1cc2ccc(=O)oc2c(O[C@@H]2O[C@H](CO)[C@@H](O)[C@H](O)[C@H]2O)c1O [Fraxin, fraxin] shows Tmax equal to 0.53

Lab note: measured Tmax of c1c2c(cc3c1OCO3)-c1cc3ccc4c(c3c[n+]1CC2)OCO4 [Coptisine chloride, coptisine chloride] was 12

Reported Tmax ( COc1ccc2cc3[n+](cc2c1OC)CCc1cc2c(cc1-3)OCO2 [Berberine, berberine] ) = 12

###

Test: Plasma pharmacokinetics after single oral (intragastric) administration of BTWD extract
Conditions: Bama miniature, pig, in vivo, po, 1 mL/kg
Recorded metric: MRT (h)
Report the figure in h without appending any unit label.

Just so you know, measured MRT for O=c1ccc2cc(O[C@@H]3O[C@H](CO)[C@@H](O)[C@H](O)[C@H]3O)c(O)cc2o1 came out at 25.1

###

Experiment: Plasma pharmacokinetics after single oral (intragastric) administration of BTWD extract
Conditions: Bama miniature, pig, plasma, po, 1 mL/kg
Recorded metric: AUC(0-inf) (ng·h/mL)
Quick note: give the figure in ng·h/mL, leave out the unit.

- Molecule: "COc1cc2c(cc1O)-c1cc3ccc(OC)c(OC)c3c[n+]1CC2 [Columbamine, columbamine]"
  Endpoint result: 31

Moving on to another molecule below.
Field AUC(0-inf) (entry O=c1ccc2cc(O)c(O)cc2o1 [Esculetin, esculetin] ) reads 994

###

Assay: in vivo
Details: Bama miniature, pig, in vivo, po
Protocol: The LC-MS analysis was conducted using a Waters Acquity UPLC I-Class system (Waters, USA) coupled with a Xevo TQ-XS mass spectrometer equipped with a heated electrospray ionization source. Chromatographic separation was carried out on an Acquity UPLC HSS T3 C18 column (2.1 mm × 50 mm, 1.8 μm) from Waters, USA, with a flow rate of 0.4 mL/min and a column oven temperature of 40°C. The mobile phase consisted of 0.1% aqueous formic acid (A) and acetonitrile (B). […]
Measured AUC(0-inf) by item
// unit must come after the numeric part

// known answers, use as guide
- Compound: "COc1cc2ccc(=O)oc2c(O)c1O [Fraxetin, fraxetin]"
  Endpoint result: "159 ng·h/mL"
- Compound: "COc1cc2ccc(=O)oc2c(O[C@@H]2O[C@H](CO)[C@@H](O)[C@H](O)[C@H]2O)c1O [Fraxin, fraxin]"
  Endpoint result: "53.5 ng·h/mL"
- Compound: "COc1ccc2cc3[n+](cc2c1OC)CCc1cc2c(cc1-3)OCO2 [Berberine, berberine]"
  Endpoint result: "209 ng·h/mL"

// next item, AUC(0-inf) requested
compound c1c2c(cc3c1OCO3)-c1cc3ccc4c(c3c[n+]1CC2)OCO4 [Coptisine chloride, coptisine chloride] , AUC(0-inf) observed: 69.8 ng·h/mL

###

Assay: Plasma pharmacokinetics after single oral (intragastric) administration of BTWD extract
Conditions: pig plasma, single oral BTWD 1.0 mL/kg, n = 6, mean ± SD
Recorded CL/F by entry
Form entry: value (mL/h) — number only.

Solved entries:
- Compound: "COc1cc2c(cc1O)-c1cc3ccc(OC)c(OC)c3c[n+]1CC2"
  CL/F / mL/h: 17.54
- Compound: "COc1cc2ccc(=O)oc2c(O[C@@H]2O[C@H](CO)[C@@H](O)[C@H](O)[C@H]2O)c1O"
  CL/F / mL/h: 36.38
- Compound: "O=c1ccc2cc(O)c(O)cc2o1"
  CL/F / mL/h: 0.76
- Compound: "O=c1ccc2cc(O[C@@H]3O[C@H](CO)[C@@H](O)[C@H](O)[C@H]3O)c(O)cc2o1"
  CL/F / mL/h: 3.25
- Compound: "C=C(C)[C@@H]1CC[C@]2(C(=O)O[C@@H]3O[C@H](CO[C@@H]4O[C@H](CO)[C@@H](O[C@@H]5O[C@@H](C)[C@H](O)[C@@H](O)[C@H]5O)[C@H](O)[C@H]4O)[C@@H](O)[C@H](O)[C@H]3O)CC[C@]3(C)[C@H](CC[C@@H]4[C@@]5(C)CC[C@H](O[C@@H]6OC[C@H](O)[C@H](O)[C@H]6O[C@@H]6O[C@@H](C)[C@H](O)[C@@H](O)[C@H]6O)[C@@](C)(CO)[C@@H]5CC[C@]43C)[C@@H]12 [Pulchinenoside B4, pulchinenoside B4]"
  CL/F / mL/h: 1.36

Summary for this compound, COc1ccc2cc3[n+](cc2c1OC)CCc1cc2c(cc1-3)OCO2 : CL/F is 14.82

// sample COc1cc2ccc(=O)oc2c(O)c1O , its CL/F was 9.72
